# systemTested: Alpha-glucosidase MAL12 (Saccharomyces cerevisiae (strain ATCC 204508 / S288c), UniProt P53341)
# Sequence (P53341 whole entry): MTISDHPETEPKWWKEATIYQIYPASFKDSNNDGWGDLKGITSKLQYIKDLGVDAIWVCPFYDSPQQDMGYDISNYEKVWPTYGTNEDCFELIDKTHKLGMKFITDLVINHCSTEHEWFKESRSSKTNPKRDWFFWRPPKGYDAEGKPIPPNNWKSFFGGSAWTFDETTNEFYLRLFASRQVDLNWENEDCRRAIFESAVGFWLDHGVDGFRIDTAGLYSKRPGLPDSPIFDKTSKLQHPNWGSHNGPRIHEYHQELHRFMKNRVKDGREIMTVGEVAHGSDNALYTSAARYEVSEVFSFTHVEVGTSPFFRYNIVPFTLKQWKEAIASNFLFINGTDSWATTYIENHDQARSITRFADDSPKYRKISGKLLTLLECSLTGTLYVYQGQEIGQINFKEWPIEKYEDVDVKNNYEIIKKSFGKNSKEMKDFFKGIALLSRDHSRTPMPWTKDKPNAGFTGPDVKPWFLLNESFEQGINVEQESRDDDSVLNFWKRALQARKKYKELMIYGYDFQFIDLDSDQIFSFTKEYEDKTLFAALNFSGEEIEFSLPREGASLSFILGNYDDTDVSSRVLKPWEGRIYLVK
# experimentalDetails: Alpha-glucosidase Inhibition Assay
# measurementConditions: 37 °C
# Method: A 100 µL assay mixture containing 70 µL phosphate buffer saline (50 mM at pH 6.8), 10 µL corresponding test compounds dissolved in methanol/DMSO (0.5 mM) and 10 µL (0.057 units) α-glucosidase enzyme were mixed, pre-incubated for 10 min at 37C and the abosrbance was recorded at 400 nm. The reaction was initiated by the addition of 10 µL p-nitrophenyl-α-D-glucopyranoside (substrate, 0.5 mM/well).
propertyName: pIC50
One number for each entry, as −log10 of the molar value.

Look over these answered cases.
>>> number("COc1cccc(-c2nc(-c3ccccc3)c(-c3ccccc3)[nH]2)c1O")
3.97
>>> number("Oc1ccc(-c2nc(-c3ccccc3)c(-c3ccccc3)[nH]2)cc1 [SR-01000511510-2]")
4.01
>>> number("Clc1ccc(-c2nc(-c3ccccc3)c(-c3ccccc3)[nH]2)cc1")
3.34
>>> number("COc1cccc(-c2nc(-c3ccccc3)c(-c3ccccc3)[nH]2)c1")
3.44

Continue with the compound presented below.
Data request: pIC50 for `Oc1ccccc1-c1nc(-c2ccccc2)c(-c2ccccc2)[nH]1` ?
Data returned: 4.13
